# TARGET_DESC: human Nav1.5 (Homo sapiens, UniProt Q14524)
# Construct: expressed in transfected cells; host or cells: CHO-K1 (T-REx System, ThermoFisher Scientific)
# Sequence (Q14524 1-2015 isoform Q14524-2): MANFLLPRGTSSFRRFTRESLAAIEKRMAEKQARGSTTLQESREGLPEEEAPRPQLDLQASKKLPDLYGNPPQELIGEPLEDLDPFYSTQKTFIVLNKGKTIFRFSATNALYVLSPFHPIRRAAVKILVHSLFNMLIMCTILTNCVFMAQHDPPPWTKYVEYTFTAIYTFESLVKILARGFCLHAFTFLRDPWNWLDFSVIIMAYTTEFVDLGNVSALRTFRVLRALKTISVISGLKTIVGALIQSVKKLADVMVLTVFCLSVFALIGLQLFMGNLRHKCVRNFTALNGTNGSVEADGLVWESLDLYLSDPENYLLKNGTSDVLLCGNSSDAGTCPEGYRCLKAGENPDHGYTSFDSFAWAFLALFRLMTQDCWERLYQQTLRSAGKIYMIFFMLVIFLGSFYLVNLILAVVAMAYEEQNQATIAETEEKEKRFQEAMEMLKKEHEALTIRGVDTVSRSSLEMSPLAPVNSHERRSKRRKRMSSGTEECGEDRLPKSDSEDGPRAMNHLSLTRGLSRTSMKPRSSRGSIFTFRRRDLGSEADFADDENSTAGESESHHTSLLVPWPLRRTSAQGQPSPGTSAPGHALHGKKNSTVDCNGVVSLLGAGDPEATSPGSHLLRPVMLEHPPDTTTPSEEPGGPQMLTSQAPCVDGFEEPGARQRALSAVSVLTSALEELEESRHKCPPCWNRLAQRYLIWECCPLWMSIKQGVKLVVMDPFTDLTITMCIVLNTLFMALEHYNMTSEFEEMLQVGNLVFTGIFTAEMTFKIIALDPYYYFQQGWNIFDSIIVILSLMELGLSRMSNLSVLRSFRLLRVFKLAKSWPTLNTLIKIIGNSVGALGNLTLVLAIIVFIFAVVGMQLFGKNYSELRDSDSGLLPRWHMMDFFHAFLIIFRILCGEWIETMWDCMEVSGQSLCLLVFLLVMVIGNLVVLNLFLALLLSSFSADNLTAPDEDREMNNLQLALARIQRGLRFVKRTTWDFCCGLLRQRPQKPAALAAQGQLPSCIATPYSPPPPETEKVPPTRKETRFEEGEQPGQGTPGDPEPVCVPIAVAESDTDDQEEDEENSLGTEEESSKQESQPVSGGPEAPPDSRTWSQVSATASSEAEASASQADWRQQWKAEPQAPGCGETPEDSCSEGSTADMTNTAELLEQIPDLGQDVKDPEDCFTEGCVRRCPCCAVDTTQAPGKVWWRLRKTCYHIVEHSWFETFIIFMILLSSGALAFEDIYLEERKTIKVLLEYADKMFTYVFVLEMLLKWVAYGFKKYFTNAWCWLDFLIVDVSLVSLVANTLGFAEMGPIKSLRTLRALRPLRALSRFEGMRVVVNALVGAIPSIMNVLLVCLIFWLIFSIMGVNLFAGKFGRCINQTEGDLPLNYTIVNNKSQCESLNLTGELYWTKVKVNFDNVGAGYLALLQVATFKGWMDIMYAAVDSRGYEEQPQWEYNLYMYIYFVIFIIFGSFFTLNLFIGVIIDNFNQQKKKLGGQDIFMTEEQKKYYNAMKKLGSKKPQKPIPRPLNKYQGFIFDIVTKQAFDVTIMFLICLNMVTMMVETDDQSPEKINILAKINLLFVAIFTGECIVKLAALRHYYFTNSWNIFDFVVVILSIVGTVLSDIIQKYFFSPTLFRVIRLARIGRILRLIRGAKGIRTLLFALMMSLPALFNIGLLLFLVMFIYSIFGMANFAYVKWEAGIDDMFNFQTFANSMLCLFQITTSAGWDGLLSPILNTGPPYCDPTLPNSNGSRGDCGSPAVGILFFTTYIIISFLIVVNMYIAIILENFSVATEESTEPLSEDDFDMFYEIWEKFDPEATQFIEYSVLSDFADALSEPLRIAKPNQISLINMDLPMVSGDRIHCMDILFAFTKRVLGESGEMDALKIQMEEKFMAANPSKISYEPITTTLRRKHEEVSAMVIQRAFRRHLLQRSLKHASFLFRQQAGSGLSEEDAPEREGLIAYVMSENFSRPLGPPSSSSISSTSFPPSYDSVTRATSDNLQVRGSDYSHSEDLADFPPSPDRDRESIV
# TEST_SUMMARY: Amplification of Nav1.5-derived voltage-dependent sodium current (Nav1.5 current), cell line stably expressing human Nav1.5, automated patch clamp
# Format: cell-based
# CONDITION_CONTEXT: 10 μmol/L compound; change of the area under the curve of Nav1.5 current (Test Result 1)
// NB: equality with 8% counts as N; only Nav1.5 current amplification rate (%) strictly below is Y

| COMPOUND | LABEL |
| --- | --- |
| CC1CCN(c2ccc(=O)n(CC(=O)Nc3cncc(C#N)c3)n2)CC1 | N |
| Cc1ccc(-c2ccc(=O)n(CC(=O)Nc3ccc4ocnc4c3)n2)s1 | N |
| CC1CC=C(c2ccc(=O)n(CC(=O)N3CCN(c4cnn(C)c4)CC3)n2)CC1 (centres unmarked) | Y |
| Cc1ccc(-c2nn(CC(=O)Nc3ccn4ccnc4c3)c(=O)c(C)c2C)cc1 | Y |

query: Item COc1cc(C2=CCC(C(F)(F)F)CC2)nn(CC(=O)N2CCc3c(N4CCOCC4)cccc32)c1=O (racemic) : Nav1.5 current amplification rate (%) beneath 8%, strictly?
result: N

query: Item CC1CC=C(c2ccc(=O)n(CC(=O)Nc3ccn4ccnc4n3)n2)CC1 (racemic) : Nav1.5 current amplification rate (%) beneath 8%, strictly?
result: N

----------
# TARGET_DESC: human Nav1.1 (Homo sapiens, UniProt P35498)
# Construct: host or cells: HEK293
# TEST_SUMMARY: Amplification of Nav1.1-derived voltage-dependent sodium current (Nav1.1 current), cell line stably expressing human Nav1.1, automated patch clamp
# Format: cell-based
# CONDITION_CONTEXT: 10 μmol/L compound; change of the area under the curve of Nav1.1 current (Test Result 1)
# Lookup of reported Nav1.1 current amplification rate (%) keyed by entry

Examples with their reported Nav1.1 current amplification rate (%) follow.
| COMPOUND | QUANTITY_MEASURED | RESULT |
| --- | --- | --- |
| O=C(Cn1nc(-c2ccc(C(F)(F)F)nc2)ccc1=O)Nc1ccc2ocnc2c1 | Nav1.1 current amplification rate (%) | 15% |
| CC1CCC(c2ccc(=O)n(CC(=O)N3CCc4c(N5CCOCC5)cccc43)n2)CC1 (mixture of isomers) [Example 472] | Nav1.1 current amplification rate (%) | 387% |
| COc1cc(C2=CCC(C)C2)nn(CC(=O)N2CCN(c3cncc(F)c3)CC2)c1=O (stereo not drawn) | Nav1.1 current amplification rate (%) | 264% |

query: Recorded Nav1.1 current amplification rate (%) for "O=C(Cn1nc(C2=CCC(F)(F)CC2)ccc1=O)N1CCN(c2cncc(F)c2)CC1" , please?
result: 29%

query: Recorded Nav1.1 current amplification rate (%) for O=C(Cn1nc(C2=CCC(C(F)(F)F)CC2)ccc1=O)N1CCN(c2cncc(F)c2)CC1 (racemic) , please?
result: 190%

query: Recorded Nav1.1 current amplification rate (%) for COc1cc(C2=CCC(C(F)(F)F)CC2)nn(CC(=O)Nc2ccn3ccnc3c2)c1=O (stereo not drawn) , please?
result: 124%

----------
# TARGET_DESC: human Nav1.5 (Homo sapiens, UniProt Q14524)
# Construct: expressed in transfected cells; host or cells: CHO-K1 (T-REx System, ThermoFisher Scientific)
# TEST_SUMMARY: Amplification of Nav1.5-derived voltage-dependent sodium current (Nav1.5 current), cell line stably expressing human Nav1.5, automated patch clamp
# Type: cell-based
# CONDITION_CONTEXT: 10 μmol/L compound; change of the area under the curve of Nav1.5 current (Test Result 1)
# Text: Test 2: Evaluation of the Amplification in Nav1.5-Derived Voltage-Dependent Sodium Current (Nav1.5 Current) by Using a Cell Line Stably Expressing Human Nav1.5 A CHO-K1 cell line (Chinese hamster ovary) stably expressing human Nav1.5 (Gene Bank Accession No: P000326.2) was obtained by using purchased T-Rex System (ThermoFisher Scientific, USA), and used for the present test. […]
QUANTITY_MEASURED: Nav1.5 current amplification rate (%)
Give the value, in units of %, as a plain number.

| MOLECULE | TARGET_DESC | QUANTITY_MEASURED | READOUT_NUMBER |
| --- | --- | --- | --- |
| CC1(C)CC=C(c2ccc(=O)n(CC(=O)Nc3ccn4nccc4c3)n2)CC1 [Example 427] | human Nav1.5 (Homo sapiens, UniProt Q14524) | Nav1.5 current amplification rate (%) | 63 |
| CC1CCN(c2ccc(=O)n(CC(=O)Nc3ccc4nsnc4c3)n2)CC1 [Example 95] | human Nav1.5 (Homo sapiens, UniProt Q14524) | Nav1.5 current amplification rate (%) | 18 |
| CC1CCN(c2ccc(=O)n(CC(=O)Nc3cc(Cl)c4ocnc4c3)n2)CC1 [Example 94] | human Nav1.5 (Homo sapiens, UniProt Q14524) | Nav1.5 current amplification rate (%) | 29 |

Now look at this one.
query: Recorded Nav1.5 current amplification rate (%) for COc1cc(C2=CCC(C(F)(F)F)CC2)nn(CC(=O)Nc2ccn3ccnc3c2)c1=O (stereo not shown) [Example 462] , please?
result: 5

----------
# TARGET_DESC: human Nav1.1 (Homo sapiens, UniProt P35498)
# Construct: host or cells: HEK293
# TEST_SUMMARY: Amplification of Nav1.1-derived voltage-dependent sodium current (Nav1.1 current), cell line stably expressing human Nav1.1, automated patch clamp
# Type: cell-based
# CONDITION_CONTEXT: compound 3 μmol/L; HEK293 stably expressing human Nav1.1; read-out: Nav1.1 current amplification rate (%)
QUANTITY_MEASURED: activation at 3 µM (%)
Give the value, in units of %, as a plain number.

Examples with their reported activation at 3 µM follow.
| COMPOUND | activation at 3 µM / % |
| --- | --- |
| COc1nc2cc(NC(=O)Cn3nc(C4=CCC(C)(C)CC4)c(OC)cc3=O)ccc2o1 [Example 491] | 157 |
| COc1ncc(C2=CCN(C(=O)Cn3nc(C4=CCC(C(F)(F)F)CC4)ccc3=O)CC2)cn1 (centres unmarked) [Example 510] | 50 |
| CC1CC=C(c2ccc(=O)n(CC(=O)Nc3ccc4oc(N(C)C)nc4c3)n2)CC1 (centres unmarked) [Example 244] | 263 |

query: Give the reported activation at 3 µM for CC1CCN(c2ccc(=O)n(CC(=O)Nc3cccc(-c4cnc[nH]4)c3)n2)CC1 [Example 171] (system: human Nav1.1 (Homo sapiens, UniProt P35498)).
result: 2

----------
# Lookup of reported Nav1.5 current amplification rate (%) keyed by entry
# TARGET_DESC: human Nav1.5 (Homo sapiens, UniProt Q14524)
# Construct: expressed in transfected cells; host or cells: CHO-K1 (T-REx System, ThermoFisher Scientific)
# TEST_SUMMARY: Amplification of Nav1.5-derived voltage-dependent sodium current (Nav1.5 current), cell line stably expressing human Nav1.5, automated patch clamp
# Type: cell-based
# CONDITION_CONTEXT: compound 3 μmol/L; CHO-K1 stably expressing human Nav1.5
Give the value, in units of %, as a plain number.

Examples with their reported Nav1.5 current amplification rate (%) follow.
| COMPOUND | READOUT_NUMBER |
| --- | --- |
| CC1CC=C(c2ccc(=O)n(CC(=O)N3CCc4c(-c5ccncc5)cccc43)n2)CC1 (racemic) | 121 |
| CC1CC=C(c2ccc(=O)n(CC(=O)N3CCc4c(-c5cccnc5)cccc43)n2)CC1 (racemic) | 44 |
| CC1CC=C(c2ccc(=O)n(CC(=O)N3CCc4c(CN5CCOCC5)cccc43)n2)CC1 (racemic) | 78 |

Now look at this one.
query: Recorded Nav1.5 current amplification rate (%) for COc1ccc(N2CCN(C(=O)Cn3nc(C4=CCC(C)CC4)ccc3=O)CC2)cn1 (stereo not shown) , please?
result: 6

----------
# TARGET_DESC: human Nav1.1 (Homo sapiens, UniProt P35498)
# Construct: host or cells: HEK293
# TEST_SUMMARY: Amplification of Nav1.1-derived voltage-dependent sodium current (Nav1.1 current), cell line stably expressing human Nav1.1, automated patch clamp
# Assay type: cell-based
# CONDITION_CONTEXT: compound 1 μmol/L; HEK293 stably expressing human Nav1.1
// NB: equality with 200% counts as label 0; only Nav1.1 current amplification rate (%) strictly below is label 1

| MOLECULE | LABEL |
| --- | --- |
| CC1(C)CC=C(c2ccc(=O)n(CC(=O)N3CCc4c(N5CCOCC5)cccc43)n2)CC1 | label 0 |

query: Item CC1CC=C(c2ccc(=O)n(CC(=O)N3CCc4c(CN(C)C5COC5)cccc43)n2)CC1 (racemic) : Nav1.1 current amplification rate (%) beneath 200%, strictly?
result: label 0

query: Item CC1CC=C(c2ccc(=O)n(CC(=O)N3CCc4c(CN5CC=CC5)cccc43)n2)CC1 (racemic) : Nav1.1 current amplification rate (%) beneath 200%, strictly?
result: label 1

query: Item CC1CC=C(c2ccc(=O)n(CC(=O)N3CCc4c3cccc4C(C)(C)O)n2)CC1 (racemic) : Nav1.1 current amplification rate (%) beneath 200%, strictly?
result: label 0

query: Item Cc1nccn1-c1ccc(NC(=O)Cn2nc(C3=CCC(C)CC3)ccc2=O)cc1 (racemic) : Nav1.1 current amplification rate (%) beneath 200%, strictly?
result: label 1

query: Item CC1CC=C(c2ccc(=O)n(CC(=O)N3CCc4c(N5CCOCC5)cccc43)n2)CC1 (racemic) : Nav1.1 current amplification rate (%) beneath 200%, strictly?
result: label 0

query: Item "COc1cc(C2=CCC(C)(C)CC2)nn(CC(=O)N2CCc3c(N4CCOCC4)cccc32)c1=O" : Nav1.1 current amplification rate (%) beneath 200%, strictly?
result: label 0

query: Item Cc1cc(NC(=O)Cn2nc(C3=CCC(C)CC3)ccc2=O)cc2ncnn12 (racemic) : Nav1.1 current amplification rate (%) beneath 200%, strictly?
result: label 1

query: Item CC1CC=C(c2ccc(=O)n(CC(=O)Nc3ccc4cncnc4c3)n2)CC1 (racemic) : Nav1.1 current amplification rate (%) beneath 200%, strictly?
result: label 0

query: Item CC1CC=C(c2ccc(=O)n(CC(=O)Nc3ccn4cncc4c3)n2)CC1 (racemic) : Nav1.1 current amplification rate (%) beneath 200%, strictly?
result: label 0

query: Item CC1CC=C(c2ccc(=O)n(CC(=O)Nc3ccc4cnnn4c3)n2)CC1 (racemic) : Nav1.1 current amplification rate (%) beneath 200%, strictly?
result: label 0

query: Item CC1CC=C(c2ccc(=O)n(CC(=O)Nc3ccc4nccnc4c3)n2)CC1 (racemic) : Nav1.1 current amplification rate (%) beneath 200%, strictly?
result: label 1

query: Item CC1CC=C(c2ccc(=O)n(CC(=O)Nc3ccnc(C#N)c3)n2)CC1 (racemic) : Nav1.1 current amplification rate (%) beneath 200%, strictly?
result: label 1

query: Item CC1CC=C(c2ccc(=O)n(CC(=O)Nc3ccc4nccn4n3)n2)CC1 (racemic) : Nav1.1 current amplification rate (%) beneath 200%, strictly?
result: label 1

query: Item CC1CC=C(c2ccc(=O)n(CC(=O)N3CCc4c(CNC5COC5)cccc43)n2)CC1 (racemic) : Nav1.1 current amplification rate (%) beneath 200%, strictly?
result: label 1

query: Item CC1CC=C(c2ccc(=O)n(CC(=O)N3CCc4c(Cn5cncn5)cccc43)n2)CC1 (racemic) : Nav1.1 current amplification rate (%) beneath 200%, strictly?
result: label 0
